# protocolNotes: chemical genetic growth profiling, strain panel (AID 1159580);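 further: tested at 20 µM; growth read once vehicle control cultures reached saturation at 30 °C; 1 = growth at the plate median or of vehicle wells; lower values mean less growth of the strain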
# recordedConditions: S. cerevisiae deletion strains, growth OD, locus YPR167C, strain met16, stronger effect = lower value
The whole screen tested about 5,500 compounds, of which about 2,000 (36%) were called active. Roughly 18% stayed inconclusive and do not appear here. This is one part of the list.
measuredMetric: normalized growth

compound	recordedNumber
NC(=O)N1c2ccccc2C=Cc2ccccc21	0.991
CC[C@H]1CN2CCc3cc(OC)c(OC)cc3C2C[C@@H]1CC1NCCc2cc(OC)c(OC)cc21 (some centres not stated)	1
COc1cc(-c2oc3cc(O)ccc3c(=O)c2O)cc(OC)c1OC	1.01
CN1CCN(CC(=O)N2c3ccccc3C(=O)Nc3cccnc32)CC1	1.02
CC(=O)CC1CCCCN1 (configuration not stated)	0.987
O=c1c(O)c(-c2ccc(O)c(O)c2)oc2cc(O)ccc12	1.01
C#C[C@]1(O)CCC2C3CCC4=Cc5oncc5C[C@]4(C)C3CC[C@@]21C (some centres not stated)	0.926
COc1cc(NS(=O)(=O)c2ccc(N)cc2)ncn1	0.994
NC(N)=NC(N)=Nc1ccccc1	0.996
O=C(O)[C@H](O)[C@@](O)(Cc1ccc(O)cc1)C(=O)O	1.01
CCc1cccc2c3c([nH]c12)C(CC)(CC(=O)O)OCC3 (configuration not stated)	1.01
CCNc1nc(Cl)nc(NCC)n1	0.996

###

normalized growth overview
# protocolNotes: chemical genetic growth profiling, strain panel (AID 1159580);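 further: tested at 20 µM; growth read once vehicle control cultures reached saturation at 30 °C; 1 = growth at the plate median or of vehicle wells; lower values mean less growth of the strain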
# recordedConditions: S. cerevisiae deletion strains, growth OD, locus YKR026C, strain gcn3, stronger effect = lower value
The whole screen tested about 5,500 compounds, of which about 2,000 (36%) were called active. Inconclusive results (about 18%) are left out. The list shows a part of the results.

compound	normalized growth
O=c1oc2c(O)c(O)cc3c(=O)oc4c(O)c(O)cc1c4c23	0.992
CC(=O)Oc1cccc2c1C(=O)c1c(OC(C)=O)cc(C(=O)O)cc1C2=O	0.908
CNC(Cc1c[nH]c2ccccc12)C(=O)O (configuration not stated)	0.975
CNCC[C@@H](Oc1ccccc1)c1ccccc1	0.977
CC(=O)OCC(=O)[C@@]12OC3(CCCC3)O[C@@H]1CC1C3CCC4=CC(=O)C=C[C@]4(C)[C@@]3(F)[C@@H](O)C[C@@]12C (some centres not stated)	1.02
CCN(CC)CCNC(=O)c1cc(Cl)c(N)cc1OC	0.996
COc1cc2c(cc1O)CCNC2C (configuration not stated)	0.989
COc1cc2cc3c4cc(OC)c(OC)cc4cc[n+]3c(C)c2cc1OC	1.02
O=C(O)c1cc(=O)c2c(Cl)cc(Cl)cc2[nH]1	1.02
CN(C)C(=N)N=C(N)N	1
CN[C@@H]1[C@@H](O[C@H]2O[C@H](CO)[C@@H](N)[C@H](O)[C@H]2O)O[C@H]2C[C@@H](N)[C@H](O[C@H]3[C@H](O)[C@@H](O)[C@H](N)C[C@@H]3N)O[C@@H]2[C@@H]1O	1
CN1CCN(CC(=O)N2c3ccccc3C(=O)Nc3cccnc32)CC1	1.01
COc1cc2c(cc1OC)[C@@H]1C(=O)c3ccc4c(c3O[C@@H]1CO2)CC(C(C)C)O4 (some centres not stated)	0.991
C=C(C)[C@H]1Cc2c(ccc3c2O[C@@H]2COc4cc(OC)c(OC)cc4[C@@H]2C3=O)O1	1
COc1ccc2c(=O)ccoc2c1	1.03
CC(=O)O[C@@H]1CC[C@]2(C)C3CC[C@]4(C)C(=O)CCC4C3CC[C@H]2C1 (some centres not stated)	0.982
COc1c2ccoc2cc2oc(C)cc(=O)c12	0.982
COc1cc(-c2oc3cc(O)ccc3c(=O)c2O)ccc1O	1.02
CO[C@@]1(NC(=O)Cc2cccs2)C(=O)N2C(C(=O)O)=C(COC(N)=O)CS[C@@H]21	0.977
CC(=O)NS(=O)(=O)c1ccc(NC(=O)c2ccccc2C(=O)O)cc1	1
CC[C@@H](CO)NC(=O)[C@@H]1C=C2c3cccc4[nH]cc(c34)C[C@H]2N(C)C1	1
CC(NCCC(c1ccccc1)c1ccccc1)c1ccccc1 (configuration not stated)	1.01
O=C(O)c1cc(=O)c2cccc(O)c2[nH]1	1.01
CN1CCN(CCCN2c3ccccc3Sc3ccc(C(F)(F)F)cc32)CC1	0.0825
CC(=O)O[C@H]1CC[C@]2(C)C3CC(=O)[C@]4(C)C(C(C)=O)=CCC4C3CC[C@H]2C1 (some centres not stated)	0.972
COc1ccc(C2C(=O)c3ccccc3C2=O)cc1	0.96
COc1ccc([C@H]2COc3c(ccc(O)c3OC)C2)c(OC)c1O	0.982
COc1cc(-c2coc3cc(O[C@@H]4O[C@H](CO)[C@@H](O)[C@H](O)[C@H]4O)c(OC)c(O)c3c2=O)cc(O)c1OC	0.997
CC1=NN(c2ccccc2)C(=O)C1	0.994
O=C(NC1CCCCC1)NC1CCCCC1	0.972
CC(=O)Oc1ccccc1C(=O)O	0.994
COc1cnc(NS(=O)(=O)c2ccc(N)cc2)nc1	1
CO[C@H]1C[C@H](O[C@H]2[C@H](C)[C@@H](OC3O[C@H](C)C[C@H](N(C)C)[C@H]3OC(C)=O)[C@@H](C)C[C@]3(CO3)C(=O)[C@H](C)[C@@H](OC(C)=O)[C@@H](C)[C@@H](C)OC(=O)[C@@H]2C)O[C@@H](C)[C@@H]1OC(C)=O (some centres not stated)	0.982
COc1c2occc2c(OC)c2c(=O)cc(C)oc12	0.995
CC[C@H]1CN2CCc3cc(OC)c(OC)cc3C2C[C@@H]1CC1NCCc2cc(OC)c(OC)cc21 (some centres not stated)	0.986
NC(=O)N1c2ccccc2C=Cc2ccccc21	1.01
COc1cc(/C=C/C(=O)N2CCC=CC2=O)cc(OC)c1OC	0.986
COC1(C)CCC2OC2(C)CCC2C1CC2(C)C (configuration not stated)	1.01
COc1ccc(C(=O)c2ccccc2)c(O)c1O	0.964
CNS(=O)(=O)c1ccc(NC(=O)c2ccccc2C(=O)O)cc1	0.979
COc1ccc(-c2oc3ccccc3c(=O)c2O)cc1OC	0.915
CC(=O)O[C@H]1CC[C@]2(C)C3CC[C@@]4(C)C(CC5O[C@@]6(CCC(C)CO6)[C@@H](C)C54)C3CC[C@@H]2C1 (some centres not stated)	1.02
